# Test system: NCI-H522 lung
# Procedure text: NCI tumour cell line growth inhibition, 48 h
Quantity kind: TGI

// below: answered molecules
>  <Molecule>
O=C(NC(=S)Nc1ccc(Cl)cc1)c1ccccc1

>  <TGI>
> 100 µM

$$$$
>  <Molecule>
c1ccc(N=C2c3ccccc3C3=NCCCN32)cc1

>  <TGI>
96.8 µM

$$$$
>  <Molecule>
CC(=O)/C=C/c1ccc(C2CC(C)=Nc3c(ccc4c3C(=O)c3ccccc3C4=O)N2)cc1 (configuration not stated)

>  <TGI>
> 100 µM

$$$$

Form: Entry = COC(=O)c1ccc(N=NN(C)CO)cc1 | System = NCI-H522 lung | TGI = ____ > 100 µM

Form: Entry = CCOC(=O)C1C(=O)c2ccccc2CN1Cc1ccccc1 (configuration not stated) | System = NCI-H522 lung | TGI = ____ > 100 µM

Form: Entry = CC1N(C)C(=O)OC12CCN(CCCC(=O)c1ccc(F)cc1)CC2 (configuration not stated) | System = NCI-H522 lung | TGI = ____ > 100 µM

Form: Entry = COC(=O)N/N=C/c1oc(-c2cccc([N+](=O)[O-])c2)c(-c2cccc([N+](=O)[O-])c2)c1[N+](=O)[O-] | System = NCI-H522 lung | TGI = ____ > 100 µM

Form: Entry = C[C@]12CCC(=O)C(O)=C1CC[C@@H]1[C@@H]2CC[C@]2(C)C(=O)CC[C@@H]12 | System = NCI-H522 lung | TGI = ____ > 100 µM
